- Test system: OVCAR-4
- measurementNotes: NCI tumour cell line growth inhibition, 48 h
Activity calls are given as the source filed them. Rule as the data show it: active = GI50 up to about 1.1 µM and inactive = higher.
Outcome codes: active, inactive

1. C#CCn1c(=O)ccn(/C(=C/C(=O)OCC)C(=O)OCC)c1=O; inactive
2. NS(=O)(=O)c1ccc(/N=N/c2cccnc2O)cc1; inactive
3. CC(C)(C)OC(=O)NC1CCCC1C(O)(C1=CCCC1)C1=CCCC1 (stereo not drawn); inactive
4. O=C(CN1CCN(c2cccc(Cl)c2)CC1)N1CCc2c([nH]c3ccccc23)C1c1cccnc1 (stereo not drawn); inactive
5. COc1ccc(-n2/c(=N/C(=S)N(C)C)ss/c2=N\C(=S)N(C)C)cc1; inactive
6. C/C(=N\N(C)C)c1sc(-n2nc(-c3ccccc3)cc2-c2ccccc2)nc1C; inactive
7. [O-][N+]1(CC[N+]2([O-])CCCCC2)CCCCC1; inactive
8. CC1=C(C(=O)NCc2ccccc2)C(c2ccccc2[N+](=O)[O-])C(C(=O)NCc2ccccc2)=C(C)N1; inactive
9. Cc1ccc2c(c1C)CC1(Cc3c(ccc4c3CCC4)C1=O)C2=O (stereo not drawn); inactive
10. O=C1Nc2ccccc2/C1=C1/Nc2ccccc2/C1=N\OCCNCC(O)C(O)C(O)C(O)CO (stereo not drawn); inactive
11. O=C(OCc1ccccc1CN1CCOCC1)c1ccc(Br)cc1; inactive
12. CC(C)(C)[Si](C)(C)OCC1OC(n2cnc3c(N)ncnc32)C2OC(=S)OC12 (stereo not drawn); inactive
13. O=C1CCC2(c3ccc(Cl)cc3)Nc3ccncc3N12 (stereo not drawn); inactive
14. CN1CCN(c2ccc3[nH]c(-c4ccc5[nH]c(-c6ccc(O)cc6)nc5c4)nc3c2)CC1; inactive
15. Oc1cc(-c2ccc(F)cc2)nc2ncccc12; inactive
16. CC(=O)Nc1cc(/C=C\C(=O)N2CC(CCl)c3c2cc(N)c2ccccc32)n(C)n1 (stereo not drawn); active
17. c1ccc2c(c1)CCCN1CCc3ccccc3C21 (stereo not drawn); inactive
18. COc1cc([C@@H]2c3cc4c(cc3[C@@H](/N=C/c3ccc(C(=O)O[C@H]5C[C@H]6OC[C@@]6(OC(C)=O)[C@H]6[C@H](OC(=O)c7ccccc7)[C@]7(O)C[C@H](OC(=O)[C@H](OC(=O)c8ccc(/C=N/[C@@H]9c%10cc%11c(cc%10[C@@H](c%10cc(OC)c(O)c(OC)c%10)[C@H]%10C(=O)OC[C@@H]%109)OCO%11)cc8)[C@@H](NC(=O)c8ccccc8)c8ccccc8)C(C)=C([C@@H](OC(C)=O)C(=O)[C@]56C)C7(C)C)cc3)C3COC(=O)C32)OCO4)cc(C)c1O (stereo partly drawn); inactive

====

- System: A549
- measurementNotes: NCI tumour cell line growth inhibition, 48 h
The source made the active and inactive calls. Rule as the data show it: active = GI50 up to about 1.1 µM and inactive = higher.
resultType: GI50

1. S=C(Nc1cc(Cl)c(Cl)cc1Cl)SCc1ccccc1; 30 µM (inactive)
2. Cc1c(CNc2ccc(Cl)c(C(=O)NC(CC(=O)O)C(=O)O)c2)ccc2nc(N)nc(N)c12 (stereo not drawn); 1.33 µM (inactive)
3. C=C(NC(=O)C(=C)NC(=O)c1csc(C2=NC3c4csc(n4)C4NC(=O)c5csc(n5)C(C(C)(O)C(C)O)NC(=O)C5CSC(=N5)/C(=C/C)NC(=O)C(C(C)O)NC(=O)c5csc(n5)C3(CC2)NC(=O)C(C)NC(=O)C(=C)NC(=O)C(=C)NC(=O)C(C(C)C)NC2C=Cc3c(C(C)O)cc(nc3C2O)C(=O)OC4C)n1)C(N)=O (stereo not drawn); 5.42 µM (inactive)
4. O=C(NI1OC(=O)c2ccccc21)c1ccc(Cl)cc1; > 100 µM (inactive)
5. CCCCC(C#N)(OP1(=O)OC(c2ccccc2)C(C)N1C)c1ccccc1 (stereo not drawn); 20.1 µM (inactive)
6. CCOC(=O)/C=C\[C@H]1OC(C)(C)O[C@H]1[C@H](O)[C@H]1COC(C)(C)O1; > 100 µM (inactive)
7. O=C(Nc1ccccc1)N(C1=NCC(CI)S1)c1ccc(F)c(F)c1 (stereo not drawn); 26.4 µM (inactive)
8. c1ccc2c(c1)CCCN1CCc3ccccc3C21 (stereo not drawn); 60.1 µM (inactive)
9. O=C(O)CCc1nc2cc3ccccc3cc2[nH]c1=O; > 100 µM (inactive)
10. CSc1ccc(-c2cc(-c3nc4ccccc4[nH]3)nc3[nH]c(-c4nc5ccccc5[nH]4)cc(=O)c23)cc1; > 100 µM (inactive)
11. O=C1CCCC(O)=C1SC1=C(O)CCCC1=O; 70.3 µM (inactive)
12. O=C1c2c(ccc3c2CCCC3)CC12Cc1ccccc1C2; 13.1 µM (inactive)
13. Cc1ccc([S+]([O-])c2ccccc2[N+](=O)[O-])cc1 (stereo not drawn); 70.1 µM (inactive)
14. N#CCCN(c1ccc(/C=C2\N=C(Cc3ccccc3)OC2=O)cc1)S(=O)(=O)c1ccccc1; > 100 µM (inactive)
15. CN(CC(=O)N1CC(CCl)c2ccc([N+](=O)[O-])cc21)CC(=O)N1CC(CCl)c2ccc([N+](=O)[O-])cc21 (stereo not drawn); > 100 µM (inactive)
16. Cc1cccc(NC(=O)/C=C/c2ccccc2)c1C; > 100 µM (inactive)
17. CC(=O)OCC(C)(COC(C)=O)N1C(=O)C2C3c4ccccc4C(c4ccccc43)C2C1=O (stereo not drawn); > 100 µM (inactive)
18. N=C(N)NCCCC(Nc1c2ccccc2[n+]([O-])c2ccccc12)C(=O)O (stereo not drawn); > 100 µM (inactive)

====

- System: BT-549
- measurementNotes: NCI tumour cell line growth inhibition, 48 h
The source made the active and inactive calls. Rule as the data show it: active = GI50 up to about 1.1 µM and inactive = higher.
Outcome codes: active, inactive

1. O=C(CCN1CCOCC1)Nc1ccc2sc3ccccc3c(=O)c2n1; inactive
2. CNC(=O)OCc1nc(SC)n(C)c1COC(=O)NC; inactive
3. CCn1cc(C(=O)O)c(=O)c2cc(F)c(N3CCN(CN4C(=O)/C(=N\c5ncc(Cc6cc(OC)c(OC)c(OC)c6)c(N)n5)c5cc(Cl)ccc54)CC3)cc21; inactive
4. N#CC1(C#N)C2=C(CCCC2)NC(c2ccc(Br)cc2)C1(C#N)C#N (centres undefined); inactive
5. c1ccc(C2C3=C(CCCC3)Nc3nc4cc5ccccc5cc4n32)cc1 (centres undefined); inactive
6. CC(=O)N(O)[C@@H]1CC[C@H](n2cnc3c(N)ncnc32)C1; inactive
7. COc1cc(C2c3cc4c(cc3[C@@H](Nc3ccc(C#N)cc3)C3COC(=O)[C@H]23)OCO4)cc(OC)c1O (some centres undefined); inactive
8. CCOC(=O)NNC(=O)NCCCCNC(=O)NNC(=O)OCC; inactive
9. CCOC(=O)c1nc2ccccc2nc1Nc1cc(OC)c(OC)c(OC)c1; inactive
10. O=C1CCC2(CC1)Cc1ccccc1C2O (centres undefined); inactive
11. COc1cc2nc(Nc3cccc(Br)c3)nc(Nc3cccc(Br)c3)c2cc1OC; inactive
12. Cc1cc(C)c2c(n1)S(=O)(=O)N(CCCN1CCN(c3cccc(C(F)(F)F)c3)CC1)C(C(=O)c1ccc(Cl)cc1)=C2O; inactive
13. C#CCn1c(=O)ccn(/C(=C/C(=O)OCC)C(=O)OCC)c1=O; inactive
14. NC(=O)Nc1ccc(S(=O)(=O)Nc2ccc(S(N)(=O)=O)cc2)cc1; inactive
15. CC1=C(C(=O)NNC(=O)C(N)=O)CC(C(=O)NNC(=O)C(N)=O)=C(C)N1; inactive
16. CC(=O)NC1C(OCc2ccccc2)OC(CO)C(O)C1OCC(=O)NC(C)C(=O)NC(CCC(=O)NCCCCCNc1c2ccccc2nc2cccc([N+](=O)[O-])c12)C(N)=O (centres undefined); active
17. CCCCOC(=O)C(=O)C(CC(CC)C(=O)c1ccccc1)C(=O)C=C(C)C (centres undefined); inactive
18. CSc1cc(N)ccc1/N=N/c1ccc(S(N)(=O)=O)cc1; inactive
19. CCOC(=O)c1c(-c2ccccc2)c(-c2ccccc2)cn1C; inactive
20. N#Cc1nc(C(CO)N(Cc2ccccc2)C(=O)O)oc1N (centres undefined); inactive
21. O=C(/C=C/c1ccc2c(c1)OCO2)Cc1nc2ncccc2[nH]c1=O; inactive
22. O=S(=O)(NNc1ccccc1)c1ccccc1; inactive
23. Clc1cc(Br)c2c3c(c(Br)cc(Cl)c13)C(Br)=C2Br; inactive
24. O=C(Cn1c(=O)oc2ccc(C(=O)c3cccc(Cl)c3)cc21)c1ccccc1; inactive

====

- Tested on: COLO 205
- measurementNotes: NCI tumour cell line growth inhibition, 48 h
Activity calls are given as the source filed them. Rule as the data show it: active = GI50 up to about 1.1 µM and inactive = higher.
Outcome codes: yes (1) (active), no (0) (inactive)

1) CCN(CC)CC(=O)NC1c2ccccc2Oc2ccccc21; no (0)
2) NNC(=O)CCC(=O)Nc1ccc(Cl)cc1Cl; no (0)
3) COc1ccc(CNc2nc3ccccc3nc2C(=O)O)cc1OC; no (0)
4) COc1cc2nc(Nc3cccc(Br)c3)nc(Nc3cccc(Br)c3)c2cc1OC; no (0)
5) COc1ccc(OC)c2sc(N3C(=O)/C(=C/c4ccc(Cl)cc4)N=C3c3ccccc3)nc12; no (0)
6) Oc1cccc(-c2ccc3c4c2O[C@H]2c5[nH]c6ccccc6c5C[C@@]5(O)[C@@H](C3)N(CC3CC3)CC[C@]425)c1; no (0)
7) O=C1c2ccccc2-c2c1c1ccccc1c(=O)n2-c1ccccc1; no (0)
8) CCOC(=O)NNC(=O)NCCCCNC(=O)NNC(=O)OCC; no (0)
9) Cc1ccc2c(c1C)CC1(Cc3c(ccc4c3CCC4)C1=O)C2=O (configuration not stated); no (0)
10) CC1(C)[C@@H]2C[C@H]1c1cnc(-c3ccccn3)cc1C2[C@@H]1c2cc(-c3ccccn3)ncc2[C@@H]2C[C@H]1C2(C)C (some centres not stated); no (0)
11) COc1cc(/C=C2/SC(c3ccccc3)N(c3cccc(Cl)c3)C2=O)cc(OC)c1OC (configuration not stated); no (0)
12) COc1cc2c(cc1OC)-c1[nH]c3ccc([N+](=O)[O-])cc3c1CC(=O)N2; yes (1)
13) CN(C)CCOc1ccc(I)cc1Cc1ccccc1; no (0)
14) COc1ccc(-c2cc(-c3cc4cc(Br)ccc4nc3Cl)c(C#N)c(N)n2)cc1; no (0)
15) N#CCCN(CCCN(C(=O)Nc1ccccc1)c1ccccc1)C(=O)Nc1ccccc1; no (0)
16) Nc1c(C(=O)c2ccccc2)nnc2ccccc12; no (0)
17) NC(=O)N/N=C1\CC2C3CC4C2C4C13 (configuration not stated); no (0)
18) CC1(C)C2CCC1(CS(=O)(=O)Nc1ccccc1)C(=O)C2 (configuration not stated); no (0)
19) O=C(/C=C\c1ccc([N+](=O)[O-])cc1)c1ccccc(=O)c1O; yes (1)
20) CN1OC(=O)N(C)C1c1ccccc1 (configuration not stated); no (0)
21) Ic1ncnc2c1ncn2C1CCCO1 (configuration not stated); no (0)
22) NS(=O)(=O)c1ccc(/N=N/c2cccnc2O)cc1; no (0)

Values compiled from ChEMBL document CHEMBL1201862.
